Test system: EKVX NSCLC
Endpoint Label: GI50

O=C(O)c1ccc2c(c1Nc1ccccc1)C(=O)c1ccccc1C2=O
19.9 µM
Cc1ccc(S(=O)(=O)/N=c2\ssc(Nc3ccccc3)c2Cl)cc1
6.03 µM

INPUT: Item CC1(C)CC(=O)C2=C(C1)NC(SSC1=C(C#N)C(c3ccc(F)cc3)C3=C(CC(C)(C)CC3=O)N1)=C(C#N)C2c1ccc(F)cc1 (stereo not drawn) has what recorded GI50?
OUTPUT: 35.5 µg/mL

====

Tested on: A549 NSCLC
Assay Text: NCI tumour cell line growth inhibition, 48 h
*1 amine or outer side, *2 acyl side, *3 side chain or, on linkers, in order; H or OH if unused. Where a SMILES comes first, the peptide text is derived from it. Bridges are numbered along the chain shown (N, C = ends). Roman numbers before positions name the chains, in order. [ ]: non-standard residue; d: D form. Actinocin(9to1) = Cc1c2oc3c(C)ccc(C(=O)[*:1])c3nc-2c(C(=O)[*:2])c(N)c1=O; X48 = O=C1CC(C(=O)[*:2])N([*:1])C1; NMeV = CN[CH](C(=O)O)C(C)C; Sar = CNCC(=O)O
Endpoint Label: TGI

Worked set:
O=C(Nc1n[nH]c2nc(-c3ccco3)ccc12)C1CC1
> 25 µM
NS(=O)(=O)c1ccc(NNc2c3ccccc3nc3ccccc23)cc1
25.6 µM

Need TGI for each of these molecules.
1. Cc1c2oc3c(C)ccc(C(=O)NC4C(=O)NC(C(C)C)C(=O)N5CC(=O)CC5C(=O)N(C)CC(=O)N(C)C(C(C)C)C(=O)OC4C)c3nc-2c(C(=O)NC2C(=O)NC(C(C)C)C(=O)N3CC(=O)CC3C(=O)N(C)CC(=O)N(C)C(C(C)C)C(=O)OC2C)c(N)c1=O (stereo not given) (I: TV[X48][Sar][NMeV] / II: TV[X48][Sar][NMeV]; ester I:1-I:C, II:1-II:C; linker I:N-II:N via Actinocin(9to1); configuration not given here)
2. ClC1CCC2OOC1O2 (stereo not given)

OUTPUT:
1. > 1 µM
2. > 100 µM

INPUT: Item O=C1N=C(c2ccccc2)OC1C(=O)c1ccccc1 (stereo not given) has what recorded TGI?
OUTPUT: > 100 µM

====

Tested on: HL-60(TB) leukemia
Assay Text: NCI tumour cell line growth inhibition, 48 h
Non-standard residues stand in square brackets, D forms with d. Residues, ends and D or L forms follow the SMILES beside them. ξ: configuration not given here. *: point of attachment. Boc = CC(C)(C)OC(=O)*; ξV = CC(C)C(N)C(=O)O; OBn = c1ccc(CO*)cc1
Record form. Attribute: GI50. Fill in for each entry.

Worked set:
Cc1n[nH]c(=S)n1/N=C/c1ccc(F)c(Oc2ccccc2)c1
48.6 µM
CC(C)C(NC(=O)OC(C)(C)C)C(=O)NCC(=O)OCc1ccccc1 (stereo not given) (Boc-[ξV]-Gly-OBn)
17.3 µg/mL
C/C(=N\NC(=O)c1cccnc1)c1cccc(/C(C)=N/NC(=O)c2cccnc2)n1
1.67 µM

Need GI50 for each of these compounds.
1. COc1cc(/C=C/C(=O)c2ccc(Nc3ncnc4ccccc34)cc2)cc(OC)c1
2. C=C1C(=O)O[C@H]2[C@H]1CC/C(Cn1cc(Cn3ccc4ccccc43)nn1)=C\CC[C@@]1(C)O[C@@H]21
3. ClCc1ccc(-c2ccc(Cn3cnc4c(Cl)nc(Cl)nc43)cc2)cc1
4. O=C(Nc1nccs1)c1cc2c(cc1Cl)Sc1nccn1S2(=O)=O
5. CCCCCCCC/C=C/CCCCCCCC1=NC(C)(C)CN1C(C)C
6. CCOC(=O)c1c(C)nc2ccc(Cl)cc2c1-c1ccccc1
7. Clc1cc(Cl)c(Cl)c(-c2nc(-c3cccnc3)cs2)c1

OUTPUT:
3.74 µM
1.2 µM
3.25 µM
13.6 µM
1.62 µM
14.2 µM
14.3 µM

====

Test system: SNB-19 CNS
Assay Text: NCI tumour cell line growth inhibition, 48 h
Endpoint Label: TGI

Worked set:
C/C(=N\NC(=O)c1cccnc1)c1cccc(/C(C)=N/NC(=O)c2cccnc2)n1
> 100 µM
CCOC(=O)/C(=C\NCC(OCC)OCC)c1nc2ccccc2[nH]1
> 100 µM
CC(Sc1ccccc1)C(CO)(CO)[N+](=O)[O-] (stereo unspecified)
43.8 µM
CC(C)[Si](OC1=C(C(=O)Nc2ccccc2Cl)CCCCC1)(C(C)C)C(C)C
> 100 µM
Cc1cc2c(cc1Cl)SC(N/N=C(\N)c1ccc(Cl)cc1)=NS2(=O)=O
> 100 µM

For the next question, use this molecule.
INPUT: Item CC(C)NCC(O)COC(=O)c1cccs1 (stereo unspecified) has what recorded TGI?
OUTPUT: > 100 µM

====

Tested on: SN12C renal
Assay Text: NCI tumour cell line growth inhibition, 48 h
Endpoint Label: TGI

Worked set:
COc1cc2nc(Sc3c([N+](=O)[O-])ncn3C)[nH]c2cc1OC
41.5 µM
CCOC(=O)CC(=O)C(=O)NNC1=NCCCN1
> 100 µM
C=C1C(=O)O[C@H]2[C@H]1CC/C(Cn1cc(Cn3ccc4ccccc43)nn1)=C\CC[C@@]1(C)O[C@@H]21
3.46 µM

Need TGI for each of these compounds.
1. CN(C)CCn1c(=O)c2ccc3c4c(nn3CCN(C)C)c3cc(N)ccc3n(c1=O)c24
2. O=C1OCc2c1cc(F)cc2[N+](=O)[O-]
3. OCC1OC(Oc2cc(O)cc(/C=C\c3ccc(O)cc3)c2)C(O)C(O)C1O (centres undefined)

OUTPUT:
1. 0.069 µM
2. > 100 µM
3. > 100 µM

Need TGI for each of these compounds.
1. COC(=O)C(C(=O)C(=O)NC1=C(Cl)C(=O)c2ccccc2C1=O)c1csc(-n2nc(-c3ccccc3)cc2-c2ccccc2)n1 (centres undefined)
2. CC(=O)OCCCCn1cnc2nc(Nc3ccccc3)nc(Cl)c21
3. C/C=C/C=N/N(C(=O)c1cc([N+](=O)[O-])cc([N+](=O)[O-])c1)C1=NC(c2ccccc2)C(c2ccccc2)=NN1 (centres undefined)

OUTPUT:
1. > 100 µM
2. > 100 µM
3. > 100 µM

====

Test system: SF-295 CNS
Assay Text: NCI tumour cell line growth inhibition, 48 h
Endpoint Label: TGI

Worked set:
Cn1cccc1-c1cc(-c2cccs2)[nH]c(=O)c1C#N
> 100 µM
O=S(=O)(N=S(c1ccc(Cl)cc1)c1ccc(Cl)cc1)c1ccccc1
> 100 µM
Cn1c(=O)c2c(no[n+]2[O-])n(C)c1=O
> 100 µM
CCOC(=O)c1c(-c2ccccc2)[n+](=O)c2ccc(Cl)cc2n1[O-]
19.1 µM
O=C(O)C1(C(=O)O)CC1(C(=O)O)C(=O)O
> 100 µM

For the next question, use this molecule.
INPUT: Item CC1(C)C(O)C[C@]23CCC[C@](C)(C[C@@H](O)C12)C3 (stereo partly specified) has what recorded TGI?
OUTPUT: > 100 µM

====

Record form. Attribute: TGI. Fill in for each entry.
System: MDA-N
Assay Text: NCI tumour cell line growth inhibition, 48 h

Worked set:
O=[N+]([O-])c1cc(CCl)ccc1CCl
4.23 µM
Oc1ccc(CNCc2ccccc2)c2cccnc12
> 100 µM
CC(C)OCC(O)COc1ccc2ccc(=O)oc2c1 (configuration not stated)
> 100 µM
COc1ccc(CNc2nc3cc(C(F)(F)F)ccc3nc2C(=O)O)cc1OC
> 100 µM
O=C1c2ccccc2-c2nc3ccc(O)cc3n21
> 100 µM
CC1(C)C=C(/C=N/Nc2ccc([N+](=O)[O-])cc2)C(C#N)=C(O)C1(C#N)C#N
> 100 µM
C=C1C(=O)O[C@@H]2C(=O)[C@@H](C)[C@@H]3C=CC(=O)[C@@]3(C)[C@@H](OC(=O)/C(C)=C\C)[C@H]12
2.99 µM
O=[n+]1c2c(n([O-])c3ccccc31)-c1cccc3cccc-2c13
> 100 µM

Need TGI for each of these compounds.
1. Nc1ccccc1N/C(=C\C(=O)C(Cl)(Cl)Cl)c1ccccc1
2. NNC(=O)c1ccccc1Nc1ccccc1C(=O)NN
3. O=[N+]([O-])c1ccc2c(c1)c(N=NC(=S)NC1CCCCC1)c(O)n2CN1CCOCC1
4. COc1c2c(cc3c1C(O)N1CC[C@]34[C@H]3O[C@H]3[C@H](OC)C[C@@H]14)OCO2 (some centres not stated)
5. CCOC(=O)c1ccc(N(CCOS(C)(=O)=O)CCOS(C)(=O)=O)cc1C
6. CCCCCCCC/C=C\CCCCCCC(F)C(=O)O (configuration not stated)

OUTPUT:
1: 39 µM; 2: > 100 µM; 3: 20 µM; 4: 67.8 µM; 5: > 100 µM; 6: > 12.5 µM

====

Test system: NCI-H23 lung
Assay Text: NCI tumour cell line growth inhibition, 48 h
Endpoint Label: TGI

Worked set:
O=C(Nc1ccccc1)Nc1cccc(-n2cc(-c3ccncc3)c(-c3ccc(O)c(Cl)c3)n2)c1
21.4 µM
Cc1cc(O)c(C(C)C)cc1CN1CCCCC1
> 100 µM
N#CC(=S)Nc1ccc(Cl)c(Cl)c1
> 59.2 µM
COc1cc(/C=C2\[C@H]3c4c(c(OC)c(C)c(OC)c4OC)C[C@@H](C(=O)N2Cc2ccccc2)N3C(=O)OC(C)C)c(OC)c(C)c1OC
> 100 µM

Need TGI for each of these compounds.
1. C[C@]12CC[C@@H]3c4ccccc4CC[C@H]3[C@@H]1CC[C@@H]2O
2. O=C(C#CP(=O)(O)c1ccccc1)c1ccccc1

OUTPUT:
["> 100 µM", "> 100 µM"]
